# system_under_test: Wee1 (Homo sapiens (Human), UniProt P30291)
# Sequence (P30291 whole entry): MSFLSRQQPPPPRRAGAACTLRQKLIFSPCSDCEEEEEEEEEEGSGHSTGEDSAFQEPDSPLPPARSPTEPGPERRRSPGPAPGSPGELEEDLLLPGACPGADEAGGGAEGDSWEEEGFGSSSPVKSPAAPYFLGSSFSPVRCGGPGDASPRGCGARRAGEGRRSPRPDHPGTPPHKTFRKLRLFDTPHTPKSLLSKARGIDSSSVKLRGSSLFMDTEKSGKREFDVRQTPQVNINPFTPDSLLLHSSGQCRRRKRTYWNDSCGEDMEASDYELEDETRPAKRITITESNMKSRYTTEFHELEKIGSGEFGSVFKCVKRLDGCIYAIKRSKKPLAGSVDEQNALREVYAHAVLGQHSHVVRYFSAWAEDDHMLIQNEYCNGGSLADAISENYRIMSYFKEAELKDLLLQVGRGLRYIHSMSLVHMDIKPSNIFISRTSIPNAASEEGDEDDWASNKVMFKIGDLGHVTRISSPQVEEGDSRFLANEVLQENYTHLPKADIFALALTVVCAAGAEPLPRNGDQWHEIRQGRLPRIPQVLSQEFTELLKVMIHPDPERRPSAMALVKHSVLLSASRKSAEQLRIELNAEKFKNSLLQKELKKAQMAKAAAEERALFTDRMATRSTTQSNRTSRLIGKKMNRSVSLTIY
# assay_summary: In vitro enzymatic inhibitory activity (33P-ATP filter-binding kinase assay, MBP substrate)
# Format: biochemical
# measurement_setup: Wee-1 150 nM, MBP 20 μM
outcome_measure: IC50 (nM)

Reference set (2 entries):
[[record]]
smiles_string = "C=CCn1c(=O)c2cnc(Nc3ccc(N4CCC5(CCNCC5)CC4)cc3)nc2n1-c1ccccc1"
system_under_test = "Wee1 (Homo sapiens (Human), UniProt P30291)"
outcome_measure = "IC50"
observed_measurement = 43.6

[[record]]
smiles_string = "C=CCn1c(=O)c2cnc(Nc3ccc(N4CCC5(CCN(C)CC5)CC4)cc3)nc2n1-c1cccc(C2(O)CCC2)n1"
system_under_test = "Wee1 (Homo sapiens (Human), UniProt P30291)"
outcome_measure = "IC50"
observed_measurement = 30.7


[A] C=CCn1c(=O)c2cnc(Nc3ccc(N4CCC5(CCN(C)CC5)CC4)cc3)nc2n1-c1cccs1
[B] C=CCn1c(=O)c2cnc(Nc3ccc(N4CCC5(CCN(C(=O)OC)CC5)CC4)cc3)nc2n1-c1cccc(C(=O)N(C)C)n1
Input line: Which shows the larger IC50 value: A or B ? Bench note: the answer is the label of the chosen record.
Output line: A
(A: 82.5 nM, B: 20.3 nM)
